B1: LINE1-full (parent)
chain: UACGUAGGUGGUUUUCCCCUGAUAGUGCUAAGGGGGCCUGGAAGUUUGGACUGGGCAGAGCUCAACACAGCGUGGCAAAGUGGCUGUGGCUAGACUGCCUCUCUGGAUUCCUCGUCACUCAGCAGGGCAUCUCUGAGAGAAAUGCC

Variants of: B1
PROTOCOL_DESCRIPTION: self-cleavage, relative activity (ratio to wild type); higher = more cleavage; in vitro, sequencing; the parent is a self-cleaving ribozyme
Exercise: state measured self-cleavage for each of the variants provided.

UACGUAGGUGGUUUUCCCCUGAUAGUGCUAAGGGGGCCUGGAAGUUUGGACUGGGCAGAGCUCAACACAGCGAGGCAAAGUGGCUGUGGCUAGACUGCCUCUCUGGAUUCCUCGUCACUCAGCAGGGCGUCUCUGAGAGAAAUGCC 1.67
UACGUUGGUGGUUUUCCCCUGAUAGUGCUAAGGGGGCCUGGAAGUUUGGACCGGGCAGAGCUCAACACAGCGUGGCAAAGUGGCUGUGGCUAGACUGCCUCUCUGGAUUCCUCGUCACUCAGCAGGGCAUCUCUGAGAGAAAUGCC 1.02
UACGUAGGUGGUUUUCCCCUGAUAGUGCUAAGGGGGCCCGGAAGUUUGGACUGGGCAGAGCUCAACACAGCGUGGCAAGGUGGCUGUGGCUAGACUGCCUCUCUGGAUUCCUCGUCACUCAGCAGGGCAUCUCUGAGAGAAAUGCC 1.21
UACGUAGGUGGUUUUCCCCUGAUAGUGCUAAGGGGGCCUGGGAGUCUGGACUGGGCAGAGCUCAACACAGCGUGGCAAAGUGGCUGUGGCUAGACUGCCUCUCUGGAUUCCUCGUCACUCAGCAGGGCAUCUCUGAGAGAAAUGCC 1.49
UACGUAGGUGGUUCUCCCCUGAUAGUGCUAAGGGGGCCUGGAAGUAUGGACUGGGCAGAGCUCAACACAGCGUGGCAAAGUGGCUGUGGCUAGACUGCCUCUCUGGAUUCCUCGUCACUCAGCAGGGCAUCUCUGAGAGAAAUGCC 1.4

List self-cleavage for every entry below, keeping the order given.
1. UACGUAGGUGGUUUUCCCCUGAUGGUGCUAAGGGGGCCUGGAAGUUUGGACUGGGCAGAGCUCAACACAGCGUGGCAAAGAGGCUGUGGCUAGACUGCCUCUCUGGAUUCCUCGUCACUCAGCAGGGCAUCUCUGAGAGAAAUGCC
2. UACGUAGGUGGUUUUCCCCUGAUAGUGCUAAGGGGGCCUGGAGGUUUGGACUGGGCAGAGCUCAACACAGCGUGGCAAAGUGGCUGUGGCUAGACUGCCUCUCUGGGUUCCUCGUCACUCAGCAGGGCAUCUCUGAGAGAAAUGCC
3. UACGUAGGUGGUUCUCCACUGAUAGUGCUAAGGGGGCCUGGAAGUUUGGACUGGGCAGAGCUCAACACAGCGUGGCAAAGUGGCUGUGGCUAGACUGCCUCUCUGGAUUCCUCGUCACUCAGCAGGGCAUCUCUGAGAGAAAUGCC

1: 0.47; 2: 1.5; 3: 1.24
